# Measurement Protocol: binders of probe aFGF2 on microarray, primary screen, stem cell growth factor project, biochemical, small-molecule microarray, fluorescence 635/667 (AID 1067);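 also: measures binding of biotinylated aFGF2 protein to printed compounds on slides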
# Test Settings: higher = more signal
Decide by composite z-score: equal to or exceeding -0.1 means yes, less means no.

Incoming: Could you verify whether the entry C=CCN1C(=O)[C@@]2(CCC(=O)OC(C)(C)C)N=C(c3ccc(OCCCO)cc3)O[C@H]2c2ccccc21 shows composite z-score of no less than -0.1?
Outgoing: yes

Incoming: Could you verify whether the entry Cc1ccc(F)cc1S(=O)(=O)N[C@@H]1CCN(Cc2ccc(Oc3ccccc3)cc2)C1 shows composite z-score of no less than -0.1?
Outgoing: no

Incoming: Could you verify whether the entry C=CCC(OC(C)=O)[C@@H]1[C@@H](N(Cc2cc3ccccc3o2)C(=O)Cc2ccc(F)cc2)c2cc(OCCCO)ccc2N1C(=O)c1ccc2ccccc2n1 (stereo partly specified) shows composite z-score of no less than -0.1?
Outgoing: yes

Incoming: Could you verify whether the entry COc1ccc([Si](C)(C)[C@H]2[C@H](CCn3cc([C@H](O)c4ccccc4)nn3)O[C@@]3(C(=O)N(Cc4ccc(N5CCC5=O)cc4)c4ccccc43)[C@@H]2C)cc1 shows composite z-score of no less than -0.1?
Outgoing: no

Incoming: Could you verify whether the entry COCCOC(=O)N1C(=O)[C@@]2(c3cc(C#Cc4ccc(OC)cc4)ccc31)[C@H](C(=O)NC[C@H](O)c1ccccc1)[C@H]1C(=O)O[C@H](c3ccccc3)[C@H](c3ccccc3)N1[C@@H]2c1ccc(O)cc1 shows composite z-score of no less than -0.1?
Outgoing: yes

The measured values listed here are drawn from PubChem BioAssay.
